biological target: recombinant HPK1 protein (Homo sapiens); assay: Primary assay of HPK1 enzymatic activity inhibition (ADP-Glo luminescence); details: recombinant HPK1, MBP substrate, 1 hour at room temperature
Sequence (Q92918 1-346 limits assumed): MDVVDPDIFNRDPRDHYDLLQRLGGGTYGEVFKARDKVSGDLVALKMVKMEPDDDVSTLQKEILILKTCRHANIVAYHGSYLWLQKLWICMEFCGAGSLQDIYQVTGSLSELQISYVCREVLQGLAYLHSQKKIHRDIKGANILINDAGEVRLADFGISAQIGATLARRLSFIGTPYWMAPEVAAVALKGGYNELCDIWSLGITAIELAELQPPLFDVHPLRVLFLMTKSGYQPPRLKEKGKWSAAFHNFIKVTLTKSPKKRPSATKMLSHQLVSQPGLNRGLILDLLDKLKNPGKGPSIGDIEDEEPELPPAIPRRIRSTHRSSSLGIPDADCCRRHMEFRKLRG

- COMPOUND: "CCOC(=O)c1cnc(Nc2ccc(S(C)(=O)=O)c(C)c2)nc1N[C@H](CO)c1ccccc1"
  TEST_TARGET: "recombinant HPK1 protein (Homo sapiens)"
  IC50: "< 50 nM"
- COMPOUND: "CN1CCc2cc(Nc3ncc(C(=O)NC4CCCC4)c(N[C@H](CO)c4ccccc4)n3)ccc2C1=O"
  TEST_TARGET: "recombinant HPK1 protein (Homo sapiens)"
  IC50: "50 to 200 nM"
- COMPOUND: "CCOC(=O)c1cnc(Nc2ccc(S(C)(=O)=O)c(F)c2)nc1N1Cc2ccccc2CC1CO (stereo not shown)"
  TEST_TARGET: "recombinant HPK1 protein (Homo sapiens)"
  IC50: "≥ 500 nM"
- COMPOUND: "CCOC(=O)c1cnc(Nc2ccc3c(c2)CCNC3=O)nc1N[C@H](CO)c1ccccc1"
  TEST_TARGET: "recombinant HPK1 protein (Homo sapiens)"
  IC50: "< 50 nM"
